Readout: melting point

See these solved cases before continuing.
Input: Consider the compound `Oc1cc(Oc2ncc(C(F)(F)F)cc2Cl)ccc1Br` and give its measured melting point.
Output: 124 to 127 °C

Input: Try the compound `CCc1nc(-c2ccc(N3CCN(C(=O)c4ccccc4C(F)(F)F)CC3)nn2)no1`
Output: 204 °C

Input: And then `CN(C)C=C(C#N)C(=O)Nc1ccccc1-n1cccc1` , what is it?
Output: 167 to 169 °C

Input: Try this compound too: COc1cc2c(cc1OCc1ccccc1)C1Cc3c(Cl)cc(OC)c(OC(=O)c4ccccc4)c3CN1CC2 (stereo not given)
Output: 170 to 172 °C

Input: Similarly, `Oc1cc(O)nc(C2CC2)n1` ?
Output: > 290 °C

More entries:
Input: Using the record for `Cc1nn(-c2ccc(C(F)(F)F)cn2)cc1CCCOc1cccc(CC(=O)O)c1` , report its melting point.
Output: 96 to 97 °C

Input: Try the compound `O=C(O)CCCc1oc(Cl)nc1-c1ccc(Cl)cc1`
Output: 150 to 151 °C

Input: Now the compound `COc1cc(C(=O)O)ccc1CC(=O)Nc1cccc(/C=C/c2nc(C3CCC3)cs2)c1`
Output: 242 to 243 °C

Input: Another compound to look at: CN1C(=O)N(c2cc(Cl)cc(Cl)c2)C(=O)[C@]12CN(Cc1ccccc1)C[C@H]2c1ccc(Br)cc1 (relative stereo)
Output: 204 °C

Input: Also `Cc1cc(-c2noc(C3CC3)n2)cc(C)c1OCCCc1cc(O)no1` , if possible.
Output: 155 to 156 °C

Input: Also `NS(=O)(=O)c1ccc(-n2nc(CNC(=O)Nc3cccc(C(F)(F)F)c3)cc2-c2ccccc2)cc1` , if possible.
Output: 185 to 190 °C

Input: Moving on to the next compound: `BrCCCCCCCn1c(-c2ccccc2)nc(-c2ccccc2)c1-c1ccccc1`
Output: 69 to 71 °C

Input: And `O=C(Nc1ccc(F)cc1F)c1cncc(Sc2cccc([N+](=O)[O-])c2)n1` ?
Output: 131 to 135 °C

Input: // query: CCCCCCCCCCCCCCCc1cccc(OC)c1C1NC(=O)NC(C)=C1C(=O)OC (stereo not given)
Output: 101 to 102 °C

Input: Try the compound `CC(C)(C)OC(=O)COc1ccc2sc(C(=O)Nc3ccccc3NC(=O)OC(C)(C)C)cc2c1`
Output: 166 °C

###

As shown below, each of these compounds has a reported melting point value.

Input: I am curious: what melting point value has been reported for `CCOC(=O)CN1Cc2ccccc2C[C@H](NC(=O)OCc2ccccc2)C1=O` ?
Output: 80 to 82 °C

Input: Also `O=[N+]([O-])c1ccccc1NOS(=O)(=O)c1ccccc1` ?
Output: 140 °C

Input: Same again, this time with `CC(=O)OCc1nccc(OCCCOc2ccc3ncc([N+](=O)[O-])n3n2)c1C`
Output: 148 to 151 °C

Input: What would you report for CC(=O)N(O)C(C)/C=C/c1cccc(Oc2ccc(Cl)cc2)c1 (stereo unspecified) ?
Output: 86 to 87 °C

Next:
Input: Param item = `O=C(O)c1ccc(-c2ccc(OCc3ccccc3)cc2)cc1` ; retrieve measured melting point.
Output: > 300 °C

Input: Continue with CON1CCC2(CC1)C(=O)C(c1c(C)ccc(Cl)c1C)([N+](=O)[O-])C(=O)N2OC (stereo unspecified)
Output: 94 to 97 °C

Input: Let us now turn to `CC(C)N(C(=O)Cn1cncn1)c1ccccc1`
Output: 125 °C

Input: Also `CCc1ccc2cc[nH]c2n1` ?
Output: 117 to 120 °C

Input: Moving on to the next compound: `CC(C)NC(=O)OCC(=O)c1ccc(C2CCCCC2)cc1`
Output: 111 to 112 °C

Input: And then `COc1ccc(-c2cc3cc(F)c(F)cc3[nH]2)cc1NCc1ccc(O)c([N+](=O)[O-])c1` , what is it?
Output: 195 to 196 °C

Input: Same question, `NC(=NO)c1cc2c(cn1)[nH]c1ccccc12` this time
Output: 159 to 163 °C
